System: ATP;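 further: ATP exposure 15 min at 22 °C before imaging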
Assay Method Text: switch fluorescence ratio, 500 uM ATP over buffer (Cy3 cluster intensity, sum of 5 cycles each) (fold (ratio)); higher = stronger signal-on switching upon ATP binding; sequences stand for … in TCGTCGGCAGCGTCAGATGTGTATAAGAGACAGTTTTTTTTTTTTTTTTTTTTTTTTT…TC
Condition Set: aptamer strand: ATP DNA aptamer (quencher-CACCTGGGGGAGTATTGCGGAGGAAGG + anchor), 100 nM annealed; ATP concentration: 500 uM
Quick reference: switch fluorescence ratio of the listed items.

// query Sample `TGGTATTCGC` — what was its switch fluorescence ratio?
// result 1.01

// query Sample `AGGAAACGGG` — what was its switch fluorescence ratio?
// result 0.978

// query Sample `GATGATTCGG` — what was its switch fluorescence ratio?
// result 0.984

// query Sample `TAGCTTCTCC` — what was its switch fluorescence ratio?
// result 1.34

// query Sample `TGGGCTTAGT` — what was its switch fluorescence ratio?
// result 0.992

// query Sample `CTGGTTTCGG` — what was its switch fluorescence ratio?
// result 0.993

// query Sample `TACCTTGTCT` — what was its switch fluorescence ratio?
// result 1.04

// query Sample `GGTTCATTTT` — what was its switch fluorescence ratio?
// result 1.01

// query Sample `GTTGGGACTG` — what was its switch fluorescence ratio?
// result 1

// query Sample `CGATCCGCGG` — what was its switch fluorescence ratio?
// result 0.942

// query Sample `TCGGCAGGGA` — what was its switch fluorescence ratio?
// result 1.01

// query Sample `GCGTGACGGC` — what was its switch fluorescence ratio?
// result 0.981

// query Sample `CGCAAAGGGG` — what was its switch fluorescence ratio?
// result 1.39

// query Sample `CTAGTCATGC` — what was its switch fluorescence ratio?
// result 1.06

// query Sample `AAAGGAAGAT` — what was its switch fluorescence ratio?
// result 0.993

// query Sample `TGCGAAAGGA` — what was its switch fluorescence ratio?
// result 1.01

// query Sample `TCTGATTTGT` — what was its switch fluorescence ratio?
// result 1.01

// query Sample `ATGGGGGCTT` — what was its switch fluorescence ratio?
// result 1.02

// query Sample `TGTTGGGAGG` — what was its switch fluorescence ratio?
// result 0.969

// query Sample `AGTTTCGCGG` — what was its switch fluorescence ratio?
// result 0.963

// query Sample `AAGGGGCTTT` — what was its switch fluorescence ratio?
// result 1.01

// query Sample `CAGATGAGGG` — what was its switch fluorescence ratio?
// result 1

// query Sample `TTAGGTAACG` — what was its switch fluorescence ratio?
// result 0.977

// query Sample `TAGTGTTTTT` — what was its switch fluorescence ratio?
// result 0.978

// query Sample `GGTGGGGGCG` — what was its switch fluorescence ratio?
// result 1

// query Sample `CTCTAAGGCT` — what was its switch fluorescence ratio?
// result 1.01

// query Sample `AGTTTGTGGC` — what was its switch fluorescence ratio?
// result 0.965

// query Sample `AAGTTGGGAA` — what was its switch fluorescence ratio?
// result 1.02

Value source: the supplement of paper PMC10126150
